# subject_of_test: BMAL1 (Homo sapiens)
# Sequence (O00327 338-449): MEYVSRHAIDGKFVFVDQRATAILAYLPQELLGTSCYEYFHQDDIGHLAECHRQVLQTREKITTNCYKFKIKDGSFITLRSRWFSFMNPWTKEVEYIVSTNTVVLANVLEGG
# Parameters: PASB domain (residues 338–449); Protein thermal shift (PTS) fragment screen on recombinant human BMAL1(PASB), shift of melting temperature
# measurement_conditions: dTmB; binder
Entries are grouped by Bmal1(PASB) dTmB into these classes: c1: < -0.6 °C; c2: ≥ -0.6 °C and < -0.1 °C; c3: ≥ -0.1 °C

Sort into band: CCC(C(=O)OCCN(CC)CC)c1ccccc1 (stereo not drawn) [Prestw-Frag-1343, Compound 396] c1

# bin label for COc1cc(NS(=O)(=O)c2ccc(N)cc2)ncn1 [Prestw-Frag-2337, Compound 376] c3

Which class does Nc1ccnn1-c1ccccc1 [Prestw-Frag-1648, Compound 208] fall in? c2

Just checking, what class would you give NS(=O)(=O)c1ccc(C(=O)O)cc1 [Prestw-Frag-2123, Compound 82] here? c2

# bin label for CN1CCN(c2ccc(N)cc2)CC1 [Prestw-Frag-3670, Compound 20] c3

State the class of the molecule shown: c1ccc(-c2ccccc2-c2nn[nH]n2)cc1 [Prestw-Frag-1441, Compound 357] c2

Band for Cc1cc(N)no1 [Prestw-Frag-1647, Compound 292] ? c2

Band for the recorded Bmal1(PASB) dTmB of O=C(C1COc2ccccc2O1)N1CCNCC1 (stereo not drawn) [Prestw-Frag-2389, Compound 381] ? c2

Category of COc1cc2c(cc1OC)C(C)NCC2 (stereo not drawn) [Prestw-Frag-2193, Compound 348] , please. c1

Lab log: O=C(CCN1CCCCC1)c1ccccc1 [Prestw-Frag-1953, Compound 479] — assign Bmal1(PASB) dTmB category c1

Which of the defined bands does the recorded Bmal1(PASB) dTmB of COc1ccc(CC(=O)O)cc1 [Prestw-Frag-2960, Compound 158] sit within? c3

Which of the defined bands does the recorded Bmal1(PASB) dTmB of O=C(O)CCCc1ccc(-c2ccccc2)cc1 [Prestw-Frag-1767, Compound 455] sit within? c1

Exercise: read the entry c1ccc(CCn2ccnc2)cc1 [Prestw-Frag-2608, Compound 366] and state which class it falls under. c2

Please indicate the class for OCc1cccnc1 [Prestw-Frag-2304, Compound 272] based on its Bmal1(PASB) dTmB. c3

Band assignment needed for OC(c1ccc(Cl)cc1)c1ccccn1 (stereo not drawn) [Prestw-Frag-1346, Compound 414] please. c1

Lab note: which band did O=c1[nH]c2ccccc2o1 [Prestw-Frag-1087, Compound 245] land in? c2

For this molecule, which bin applies? c1ccc2cnccc2c1 [Prestw-Frag-2493, Compound 131] c2

Assign a bin to COC(=O)C(O)(c1ccccc1)C1CCCC1 (stereo not drawn) [Prestw-Frag-2484, Compound 442] c1

// bin(item) where item = Cc1cccc(C)c1N [Prestw-Frag-2313, Compound 365] c2

Could you place O=C(O)c1ccccc1O [Prestw-Frag-1045, Compound 55] in its proper category? Many thanks. c1

Band for NC1CCc2[nH]c3ccccc3c2C1 (stereo not drawn) [Prestw-Frag-3709, Compound 361] ? c3

Looking at CC(=O)c1ccc(O)cc1O [Prestw-Frag-2506, Compound 162] , which class would you pick? c3

Class label required: FC(F)(F)c1ccn[nH]1 [Prestw-Frag-3726, Compound 192] c3

Category of COc1ccc(OC)c(C(C)O)c1 (stereo not drawn) [Prestw-Frag-2208, Compound 283] : c2

Hey, which category is CNC(C)(C)Cc1ccccc1 [Prestw-Frag-1141, Compound 101] in, do you know? c1

Hi there! Could you help me figure out the category for Cc1cccc(O)c1 [Prestw-Frag-1791, Compound 216] please? c1

Lab log: COc1ccc(N2CCN(c3ccc(N)cc3)CC2)cc1 [Prestw-Frag-1557, Compound 35] — assign Bmal1(PASB) dTmB category c3

Dear colleague, I would appreciate it if you could identify the bin for CC(=O)c1ccccc1O [Prestw-Frag-1884, Compound 211] and reply at your convenience. c2

Category of COc1ccc(C(F)(F)F)cc1 [Prestw-Frag-2108, Compound 203] , please. c2

Category lookup for the molecule Clc1cccc(CN2CCNCC2)c1 [Prestw-Frag-1700, Compound 62] c1

Kindly state the category for this molecule: CC(=O)NCCc1c[nH]c2ccccc12 [Prestw-Frag-1478, Compound 417] c2

// return the class label for Clc1cccc2ncccc12 [Prestw-Frag-2593, Compound 66] c1

Class (by measured Bmal1(PASB) dTmB) for O=C1CCc2ccc(O)cc2N1 [Prestw-Frag-2854, Compound 80] c1

Which Bmal1(PASB) dTmB band matches O=C1CCOc2ccccc21 [Prestw-Frag-1740, Compound 360] ? c3

Into which category would you place Oc1cc(Cl)c(Cl)cc1Cl [Prestw-Frag-2898, Compound 59] ? c3
